Tested on: 361931-004-R-J1-PDC multicell spheroid viability;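 also: spheroids exposed to agents for seven days before readout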
testProtocol: Anticancer human tumor 361931-004-R-J1-PDC patient-derived colon adenocarcinoma cell line growth inhibition [PI3K]
condition: second compound 0.01 µM; first compound 1 µM; stronger effect = lower value
Excerpt: Combinatorial screen of targeted agents with the PI3K inhibitors inavolisib, alpelisib, duvelisib, and copanlisib in multi-cell type tumor spheroids A high-throughput screen of multi-cell type tumor spheroids was designed to identify active combinations of targeted small molecules and PI3K pathway inhibitors. […] Compounds. […] If the clinical Cmax for an agent had not been determined, the highest concentration tested was 10 microM. […]
measurementKind: viability, T/C (%)
Your answer is read as %, so omit the unit and give the number.

Consider the worked cases shown below.
compound	observedValue
C[C@@H](NC(=O)c1ncnc(N)c1Cl)c1ncc(C(=O)Nc2cc(C(F)(F)F)c(Cl)cn2)s1 + COc1c(OCCCN2CCOCC2)ccc2c3n(c(=NC(=O)c4cnc(N)nc4)nc12)CCN3	98
CNC(=O)c1ccc(N2C(=S)N(c3ccc(C#N)c(C(F)(F)F)c3)C(=O)C2(C)C)cc1F + CC(Nc1ccc2c(c1)OCCn1cc(N3C(=O)OCC3C(F)F)nc1-2)C(N)=O	104
CC(C)NCC(C(=O)N1CCN(c2ncnc3c2C(C)CC3O)CC1)c1ccc(Cl)cc1 (stereo not given) + COc1c(OCCCN2CCOCC2)ccc2c3n(c(=NC(=O)c4cnc(N)nc4)nc12)CCN3	78.7
CC1(C)CCC(CN2CCN(c3ccc(C(=O)NS(=O)(=O)c4ccc(NCC5CCOCC5)c([N+](=O)[O-])c4)c(Oc4cnc5[nH]ccc5c4)c3)CC2)=C(c2ccc(Cl)cc2)C1 + CC(Nc1ccc2c(c1)OCCn1cc(N3C(=O)OCC3C(F)F)nc1-2)C(N)=O	103

Switching to the query record.
[ask] What does the data say about its viability, T/C? Entry: C=CC(=O)N1CCN(c2nc(=O)n(-c3c(C)ccnc3C(C)C)c3nc(-c4c(O)cccc4F)c(F)cc23)C(C)C1 (stereo not given) + CC(Nc1ccc2c(c1)OCCn1cc(N3C(=O)OCC3C(F)F)nc1-2)C(N)=O
[reply] 99.5
